Values from ChEMBL document CHEMBL1129075

ASSAY TARGET: GABA-A receptor; anion channel
ASSAY SUMMARY: Displacement of [3H]flunitrazepam at GABA-A benzodiazepine receptor in rat brain cortical membranes
Type: cell membranes, Membrane
This section presents compounds with their documented log10 Ki values.
// units: nM (pre-log); metric: Ki; scale: log10

Below, 4 compounds whose answers are already recorded.
COC(=O)c1cc2c3ccccc3[nH]c(=O)n2n1 : 1.34
c1ccc(-c2cc3n(n2)CNc2ccccc2-3)cc1 : 3.82
CCOC(=O)c1cc2c(cn1)[nH]c1ccccc12 : 0.65
CCOC(=O)c1cc2c3cc(Cl)ccc3nc(O)n2n1 : 1.70

What value of log10 Ki has been recorded for this entry: `CC(C)OC(=O)c1cc2c3ccccc3nc(O)n2n1`
2.64

Recorded log10 Ki of `Oc1nc2ccccc2c2cc(-c3ccccn3)nn12` , please.
1.72

* * *

ASSAY TARGET: GABA-A receptor; anion channel
ASSAY SUMMARY: Displacement of [3H]flunitrazepam at GABA-A benzodiazepine receptor in rat brain cortical membranes
Format: cell membranes, Membrane
Listed molecules paired with reported log10 of Ki
Log scale reminder: Ki in nM, then log10 taken.

Cc1nnc(-c2cc3c4ccccc4nc(O)n3n2)o1 : 3.66

Would you mind telling me what log10 of Ki value was observed for `Oc1nc2ccccc2c2cc(-c3ccco3)nn12` ?
1.20

Item `Oc1nc2ccccc2c2cc(-c3cccs3)nn12` has what recorded log10 of Ki?
0.87

log10 of Ki lookup needed for `Oc1nc2ccccc2c2cc(-c3ccc(Cl)cc3)nn12` , thanks.
3.72

Reported log10 of Ki, molecule `Oc1nc2ccc(Cl)cc2c2cc(-c3ccco3)nn12` : ____
1.61

What measured log10 of Ki goes with `CCOC(=O)c1cc2c3ccccc3[nH]c(=O)n2n1` ?
1.45

Give its log10 of Ki value. Item: `CCOC(=O)c1cc2n(n1)CNc1ccccc1-2`
1.85

# log10 of Ki lookup, item `CCOC(=O)c1cc2c3ccccc3nc(S)n2n1`
3.52

# lookup: log10 of Ki of `Oc1nc2ccc(Cl)cc2c2cc(-c3ccccc3)nn12`
2.02

Reported log10 of Ki for `O=C(Oc1ccccc1)c1cc2c3ccccc3nc(O)n2n1` : what is it?
3.50

log10 of Ki for `Oc1nc2ccccc2c2cc(-c3ccccc3)nn12` ?
1.77
